- System: SNB-19 CNS
- METHOD DESCRIPTION: NCI-60 one-dose screen, 48 h (100 = growth as untreated, 0 = no growth, -100 = all killed)
- SETTINGS: 10 µM unless noted
This is part of a sample that, as a whole, favours compounds with a hit. Of some 83,000 tested, about 20% had one in any assay. The source made the active and inactive calls. How the source made its calls: active means growth percent below 10; inactive means the rest.
MEASURED PROPERTY: growth

Worked cases, growth given:
STRUCTURE STRING	growth
Cc1c(Cl)cccc1NC(=O)c1sc2nc3c(cc2c1N)CCCCCC3	29.1% (inactive)
Nc1c(C(=O)Nc2cccc3ccccc23)sc2nc3c(cc12)CCCCCC3	27.8% (inactive)
Cc1ccc(CS/C(=C\c2ccc([N+](=O)[O-])cc2)C(=O)c2ccc(F)cc2)cc1	34.6% (inactive)
Cc1cc(O)cc(O)c1N=NC1=NCCS1	107% (inactive)

Task: Which growth reading was recorded for the molecule `COc1ccc2[nH]c(=O)c(/C=C/C(=O)/C=C/c3ccc(O)c(OC)c3)cc2c1` ?
Result: 36.3% (inactive)

Task: Which growth reading was recorded for the molecule `Cc1cccc(NC(=O)c2sc3nc4c(cc3c2N)CN(Cc2ccccc2)CC4)c1C` ?
Result: 34.3% (inactive)
